- Target Or Test System: STAT1:STAT1 homodimers (Mus musculus)
- Sequence (P42225 2-749 limits assumed): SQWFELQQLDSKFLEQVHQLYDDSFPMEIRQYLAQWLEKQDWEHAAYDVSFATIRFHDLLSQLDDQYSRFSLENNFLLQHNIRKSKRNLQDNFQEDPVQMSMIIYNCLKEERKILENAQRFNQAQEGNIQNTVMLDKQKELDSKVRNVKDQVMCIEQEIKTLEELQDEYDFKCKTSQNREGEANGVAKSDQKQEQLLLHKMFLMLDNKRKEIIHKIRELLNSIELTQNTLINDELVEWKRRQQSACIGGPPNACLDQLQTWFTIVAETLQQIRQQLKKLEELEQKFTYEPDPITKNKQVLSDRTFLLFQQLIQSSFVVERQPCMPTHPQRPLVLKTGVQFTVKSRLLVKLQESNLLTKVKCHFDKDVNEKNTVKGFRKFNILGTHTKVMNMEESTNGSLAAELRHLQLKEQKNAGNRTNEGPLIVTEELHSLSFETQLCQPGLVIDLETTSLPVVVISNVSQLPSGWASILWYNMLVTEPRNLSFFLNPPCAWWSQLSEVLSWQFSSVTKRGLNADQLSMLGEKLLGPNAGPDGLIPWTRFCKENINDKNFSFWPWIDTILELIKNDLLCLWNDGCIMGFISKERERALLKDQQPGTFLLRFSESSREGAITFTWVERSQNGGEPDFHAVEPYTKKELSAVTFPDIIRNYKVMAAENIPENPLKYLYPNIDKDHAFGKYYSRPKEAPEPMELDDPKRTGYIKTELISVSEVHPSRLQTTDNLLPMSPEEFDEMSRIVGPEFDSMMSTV
- Format: biochemical
- Experimental Context: 10 µM, MGFe probe (Fig. S6)
Measured Endpoint: effect on DNA-binding activity of STAT1:STAT1 homodimers

INSERT INTO assay_data (compound, measured_value) VALUES
  ('O=C(O)c1ccc(N(Cc2ccc(C3CCOCC3)cc2)C(=O)[C@H]2CCN2S(=O)(=O)c2c(F)c(F)c(F)c(F)c2F)cc1O [Compound 5g]', 'minimal effect'),
  ('O=C(NO)c1ccc(N(Cc2ccc(C3CCCCC3)cc2)C(=O)[C@H]2CCN2S(=O)(=O)c2c(F)c(F)c(F)c(F)c2F)c(F)c1 [Compound 8f]', 'minimal effect'),
  ('O=C(O)c1ccc(N(Cc2ccc(C3CCCC3)cc2)C(=O)[C@H]2CCN2S(=O)(=O)c2c(F)c(F)c(F)c(F)c2F)cc1O [Compound 5e]', 'minimal effect');

* * *

- Test system: MDA-MB-468 cells
- Experiment Summary: CyQuant cell viability assay, MDA-MB-468
- Type: cell-based
- Experimental Context: Homo sapiens, MDA-MB-468, 72 h, read-out: Cell viability EC50 MDA-MB-468
Measured Endpoint: EC50 (nM)
One number for each entry, in nM.

**Q:** Any idea what its EC50 is? The compound is COC(=O)c1ccc(N(Cc2ccc(C3CCCCC3)cc2)C(=O)[C@H]2CCN2S(=O)(=O)c2c(F)c(F)c(F)c(F)c2F)cc1O
**A:** 2500

* * *

- Test system: MDA-MB-231 cells
- Experiment Summary: Clonogenic
- Format: cell-based, human
- Experimental Context: 1 μM, treated once
Measured Endpoint: inhibition of colony formation

INSERT INTO assay_data (molecule, measured_endpoint, measured_value) VALUES
  ('COC(=O)c1ccc(N(Cc2cnc(C3CCCCC3)cn2)C(=O)[C@H]2CCN2S(=O)(=O)c2c(F)c(F)c(F)c(F)c2F)cc1O [Compound 7f]', 'inhibition of colony formation', 'significant inhibition'),
  ('O=C1NC(=O)c2cc(N(Cc3ccc(C4CCCCC4)cn3)C(=O)[C@H]3CCN3S(=O)(=O)c3c(F)c(F)c(F)c(F)c3F)ccc21 [Compound 9k]', 'inhibition of colony formation', 'significant inhibition');
